system: HSC-39 (Gastric Carcinoma); test: Bliss excess, mean over the matrix (fraction); higher = more synergy;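 note: after 72 h of two-drug dosing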
ATTRIBUTE_MEASURED: Bliss excess
Lab note: jot down the number only; don't add units.

Solved entries (count: 4):
{"COMPOUND": "C[C@@H](Nc1cc(F)cc(F)c1)c1cc(C(=O)N(C)C)cc2c(=O)cc(N3CCOCC3)oc12 [AZD8186] + CC(=O)c1c(C)c2cnc(Nc3ccc(N4CCNCC4)cn3)nc2n(C2CCCC2)c1=O [Palbociclib] (first compound max 10 µM, 7x7, partner max 10 µM)", "Bliss excess": 0.0271}
{"COMPOUND": "CC(=O)c1c(C)c2cnc(Nc3ccc(N4CCNCC4)cn3)nc2n(C2CCCC2)c1=O [Palbociclib] + CC1(C)CCC(CN2CCN(c3ccc(C(=O)NS(=O)(=O)c4ccc(NCC5CCOCC5)c([N+](=O)[O-])c4)c(Oc4cnc5[nH]ccc5c4)c3)CC2)=C(c2ccc(Cl)cc2)C1 [Venetoclax] (first compound max 10 µM, 7x7, partner max 1 µM)", "Bliss excess": -0.0476}
{"COMPOUND": "C[C@@H](Oc1cc(-c2cnn(C3CCNCC3)c2)cnc1N)c1c(Cl)ccc(F)c1Cl [Crizotinib] + Cn1cnc2c(F)c(Nc3ccc(Br)cc3Cl)c(C(=O)NOCCO)cc21 [Selumetinib] (first compound max 10 µM, 7x7, partner max 10 µM)", "Bliss excess": -0.0264}
{"COMPOUND": "CS(=O)(=O)CCNCc1ccc(-c2ccc3ncnc(Nc4ccc(OCc5cccc(F)c5)c(Cl)c4)c3c2)o1 [Lapatinib] + Cn1cnc2c(F)c(Nc3ccc(Br)cc3Cl)c(C(=O)NOCCO)cc21 [Selumetinib] (first compound max 10 µM, 7x7, partner max 10 µM)", "Bliss excess": -0.0089}

The compound Cn1cnc2c(F)c(Nc3ccc(Br)cc3Cl)c(C(=O)NOCCO)cc21 [Selumetinib] + CC(C)n1c(=O)n(C)c2cnc3cc(F)c(-c4ccc(OCCCN5CCCCC5)nc4)cc3c21 [AZD1390] (first compound max 10 µM, 7x7, partner max 0.3 µM) , when measured on HSC-39 (Gastric Carcinoma), yielded Bliss excess of 0.0253

The compound NC1(C(=O)N[C@@H](CCO)c2ccc(Cl)cc2)CCN(c2ncnc3[nH]ccc23)CC1 [Capivasertib] + CC(=O)c1c(C)c2cnc(Nc3ccc(N4CCNCC4)cn3)nc2n(C2CCCC2)c1=O [Palbociclib] (first compound max 10 µM, 7x7, partner max 10 µM) , when measured on HSC-39 (Gastric Carcinoma), yielded Bliss excess of 0.0906

The compound Cn1cnc2c(F)c(Nc3ccc(Br)cc3Cl)c(C(=O)NOCCO)cc21 [Selumetinib] + C[C@@H]1COCCN1C2=NC(=NC(=C2)C3(CC3)[S@](=N)(=O)C)C4=C5C=CNC5=NC=C4 [AZD6738] (first compound max 10 µM, 7x7, partner max 10 µM) , when measured on HSC-39 (Gastric Carcinoma), yielded Bliss excess of -0.0391

These entries and their values trace back to the supplement of paper PMC11061612.
